Target under test: Programmed cell death protein 1/Programmed cell death 1 ligand 1 (Homo sapiens, UniProt Q15116+Q9NZQ7)
Sequence (Q15116 whole entry): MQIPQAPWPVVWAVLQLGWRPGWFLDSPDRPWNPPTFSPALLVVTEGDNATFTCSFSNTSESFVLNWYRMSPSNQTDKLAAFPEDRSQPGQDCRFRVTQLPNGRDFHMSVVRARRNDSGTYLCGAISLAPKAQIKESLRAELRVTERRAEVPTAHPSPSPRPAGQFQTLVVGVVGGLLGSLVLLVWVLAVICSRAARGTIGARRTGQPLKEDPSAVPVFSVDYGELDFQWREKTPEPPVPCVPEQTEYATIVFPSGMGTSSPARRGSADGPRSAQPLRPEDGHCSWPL
Sequence (Q9NZQ7 whole entry): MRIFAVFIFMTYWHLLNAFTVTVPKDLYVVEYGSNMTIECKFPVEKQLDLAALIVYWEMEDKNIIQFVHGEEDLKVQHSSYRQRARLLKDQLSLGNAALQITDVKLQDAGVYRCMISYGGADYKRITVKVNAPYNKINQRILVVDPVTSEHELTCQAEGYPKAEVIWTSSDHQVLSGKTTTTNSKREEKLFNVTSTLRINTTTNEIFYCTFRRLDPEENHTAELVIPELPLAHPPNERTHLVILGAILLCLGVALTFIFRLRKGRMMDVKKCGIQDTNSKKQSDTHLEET
Method description: Inhibition of PD1 (unknown origin)/PDL1 (unknown origin) protein-protein interaction by HTRF assay
Measurement kind: IC50

>>> assay_value("CCN(CC)CCCNc1cc(N2CCNCC2)nc(NCc2cccc(-c3ccccc3)c2C)n1")
"5.15 µM"

###

Method description: Selectivity index, ratio of IC50 for human MRC5 cells to IC50 for human SKOV3 cells assessed as cell growth inhibition by CCK8 assay
Assay type: toxicity
Details: MRC5 cells versus SKOV3 cells, read-out: Ratio IC50
Measurement kind: selectivity ratio

>>> assay_value("Cc1c(CNc2nc(NCCCN(C)C)cc(N3CCOCC3)n2)cccc1-c1ccccc1")
129
>>> assay_value("CCN(CC)CCCNc1cc(N2CCOCC2)nc(NCc2cccc(-c3ccccc3)c2C)n1")
119
>>> assay_value("Cc1c(CNc2nc(NCCCN3CCCCC3)cc(N3CCOCC3)n2)cccc1-c1ccccc1")
267
>>> assay_value("Cc1c(CNc2nc(NCCCN3CCCC3)cc(N3CCOCC3)n2)cccc1-c1ccccc1")
139
>>> assay_value("CCN(CC)CCCNc1cc(N2CCNCC2)nc(NCc2cccc(-c3ccccc3)c2C)n1")
278

Values were extracted from ChEMBL document CHEMBL4622943.
